# Test system: soybean
# experimental_details: Test B pre/postemergence soybean
# Format: in vivo, Glycine max
# setup_conditions: Preemergence, Rate 250 g/ha; scale 0 to 10, 0 is no effect, 10 is complete control
Below is a list of entries, each paired with its recorded Soybean plant response rating value.
Keep the answer to the number alone.

In [3]: df
Out[3]:
                                   compound  readout_number
0  COC(OC)C(C)n1c(=O)on(C(=O)N(c2ccc(F)cc2F)C(C)C)c1=O (centres unmarked)               0
1  Cc1nc(C)c(Cn2c(=O)on(C(=O)N(c3ccc(Cl)cc3)C(C)C)c2=O)s1               0
2  Cc1noc(C)c1-n1c(=O)on(C(=O)N(c2ccc(F)cc2)C(C)C)c1=O               0
3  CC(C)N(C(=O)n1oc(=O)n(C(C)C(=O)N(C)C)c1=O)c1ccc(Cl)cc1 (centres unmarked)               0
4  CC(C)N(C(=O)n1oc(=O)n(C(C)C2CC2)c1=O)c1ccc(F)cc1 (centres unmarked)               0

Looking for the measured Soybean plant response rating of COC(CCl)n1c(=O)on(C(=O)N(c2ccc(Cl)cc2)C(C)C)c1=O (centres unmarked) , can you help?
0

Same lookup for CC(C)N(C(=O)n1oc(=O)n(CCCl)c1=O)c1ccc(Cl)cc1 , please.
0

Same lookup for CC(C)Cn1c(=O)on(C(=O)N(c2ccc(Cl)cc2)C(C)C)c1=O , please.
0

====

# System: wheat
# experimental_details: Test B pre/postemergence wheat
# Format: in vivo, Triticum aestivum
# setup_conditions: Postemergence, Rate 125 g/ha; scale of 0 to 10 where 0 is no effect and 10 is complete control
metric_name: Wheat plant response rating
Keep the answer to the number alone.

Below: 4 compounds and their reported Wheat plant response rating.
>>> print(df.to_string())
                                   compound                  metric_name  readout_number
0  Cc1ccccc1Cn1c(=O)on(C(=O)N(c2ccc(F)cc2)C(C)C)c1=O  Wheat plant response rating               0
1  C=CCn1c(=O)on(C(=O)N(c2ccccc2)C(C)C)c1=O  Wheat plant response rating               3
2  CCOP(=O)(OCC)C(C)n1c(=O)on(C(=O)N(c2ccc(Cl)cc2)C(C)C)c1=O (centres unmarked)  Wheat plant response rating               0
3  Cc1nn(C)c(C)c1-n1c(=O)on(C(=O)N(c2ccccc2)C(C)C)c1=O  Wheat plant response rating               0

Looking for the measured Wheat plant response rating of CC(C)N(C(=O)n1oc(=O)n(Cc2cccs2)c1=O)c1ccccc1 , can you help?
0

====

Below is a list of entries, each paired with its recorded Wheat plant response rating value.
# Tested on: wheat
# experimental_details: Test B pre/postemergence wheat
# Type: in vivo, Triticum aestivum
# setup_conditions: Rate 62 g/ha, Postemergence; scale of 0 to 10 where 0 is no effect and 10 is complete control
Keep the answer to the number alone.

Below: 5 compounds and their reported Wheat plant response rating.
>>> print(df.to_string())
                                   compound  readout_number
0  CCn1c(=O)on(C(=O)N(c2ccc(Cl)cc2)C(C)C)c1=O               0
1  Cc1ccccc1-n1c(=O)on(C(=O)N(c2ccc(Cl)cc2F)C(C)C)c1=O               0
2  CC(C)N(C(=O)n1oc(=O)n(C2CCC2)c1=O)c1ccccc1               2
3  CC(C)N(C(=O)n1oc(=O)n(C2CCC2)c1=O)c1ccc(Cl)cc1               0
4  CC(C)N(C(=O)n1oc(=O)n(Cc2ccco2)c1=O)c1ccc(F)cc1               0

Looking for the measured Wheat plant response rating of CC(C)N(C(=O)n1oc(=O)n(C2CCCCC2C(F)(F)F)c1=O)c1ccc(F)cc1 (centres unmarked) , can you help?
0

Same lookup for CC(C)N(C(=O)n1oc(=O)n(C2CC2)c1=O)c1ccc(Cl)cc1 , please.
0

Same lookup for CC(C)N(C(=O)n1oc(=O)n(CC2(C)COC2)c1=O)c1ccc(F)cc1 , please.
2
